System: A549 cells
Assay: Cell viability (CyQuant assay), A549
Assay type: cell-based
Settings: Homo sapiens; A549; 72 hours; read-out: EC50 of effect on viability
Readout Label: pEC50
Quick note: pEC50 means taking -log10 of the concentration in moles per liter.

-- ask Recorded pEC50 of "Nc1ncn([C@@H]2O[C@H](CO)[C@@H](O)[C@H]2O)c(=O)n1" , please.
-- reply 5.19

----------
Test system: H1299 cells
Test: Cell viability (CyQuant assay), H1299
Type: cell-based
Settings: Homo sapiens, NCI-H1299; H1299; 72 hours; read-out: EC50 of effect on viability
Below, each entry is listed with its recorded EC50.
State the answer as a number, implicitly in µM.

Nc1ncn([C@H]2C[C@H](O)[C@@H](CO)O2)c(=O)n1 [DAC, 5-aza-2′-deoxycytidine] : 5.2

Next molecule, EC50 to be filled in.
-- ask Recorded EC50 of Nc1ncn([C@@H]2O[C@H](CO)[C@@H](O)[C@H]2O)c(=O)n1 [AZA] , please.
-- reply 5.1

----------
Test system: H460 cells
Experiment: Cell viability (CyQuant assay), H460
Type: cell-based
Settings: Homo sapiens, NCI-H460, 72 h, H460, read-out: EC50 of effect on viability
Readout Label: pEC50
Quick note: pEC50 means taking -log10 of the concentration in moles per liter.

-- ask Recorded pEC50 of Nc1ncn([C@@H]2O[C@H](CO)[C@@H](O)[C@H]2O)c(=O)n1 [AZA] , please.
-- reply 5.91
